# Experimental Target: Aryl hydrocarbon receptor (Homo sapiens) (UniProt P35869)
# Sequence (P35869 whole entry, looked up): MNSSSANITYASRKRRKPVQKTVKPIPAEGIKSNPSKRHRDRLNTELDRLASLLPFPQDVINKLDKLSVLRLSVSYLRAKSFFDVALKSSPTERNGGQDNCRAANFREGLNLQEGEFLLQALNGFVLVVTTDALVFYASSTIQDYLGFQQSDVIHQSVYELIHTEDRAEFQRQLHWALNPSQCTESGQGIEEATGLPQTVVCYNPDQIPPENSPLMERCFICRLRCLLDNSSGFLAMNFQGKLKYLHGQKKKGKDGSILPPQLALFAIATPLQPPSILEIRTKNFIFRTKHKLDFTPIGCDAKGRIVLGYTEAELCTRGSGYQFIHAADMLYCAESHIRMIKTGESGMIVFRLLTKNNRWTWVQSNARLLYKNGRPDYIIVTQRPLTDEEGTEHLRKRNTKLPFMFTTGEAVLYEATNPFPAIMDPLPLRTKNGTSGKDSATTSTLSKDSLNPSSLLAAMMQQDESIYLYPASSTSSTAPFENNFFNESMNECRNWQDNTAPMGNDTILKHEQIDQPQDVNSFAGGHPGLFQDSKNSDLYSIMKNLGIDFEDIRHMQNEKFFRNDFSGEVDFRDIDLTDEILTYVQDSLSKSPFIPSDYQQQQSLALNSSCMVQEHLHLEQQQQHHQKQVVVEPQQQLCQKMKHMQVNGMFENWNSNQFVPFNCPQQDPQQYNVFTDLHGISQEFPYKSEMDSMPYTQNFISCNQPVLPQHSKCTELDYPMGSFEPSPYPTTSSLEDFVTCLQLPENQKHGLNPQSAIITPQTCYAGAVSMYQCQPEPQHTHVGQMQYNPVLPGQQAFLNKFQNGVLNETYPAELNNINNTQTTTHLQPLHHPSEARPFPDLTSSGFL
# Experiment Description: ATG_Ahr_CIS: Attagene CIS-FACTORIAL HepG2 Assay for human Aryl Hydrocarbon Receptor (Ahr) (AID 2282930)
# Assay Context: HepG2 AhR cis-factorial reporter transcription; actives raise or lower the signal
Activity calls are given as the source filed them. How the source made its calls: active means hit-call score of the fitted dose curve at least 0.9, where 1 is the maximum; inactive means score below 0.9.
// classify into active, inactive

Dear colleague, could you share the recorded outcome for `O=C1c2c(O)ccc(Nc3ccc(CCO)cc3)c2C(=O)c2c([N+](=O)[O-])ccc(O)c21` when you have a moment?
active

Hello, I am checking results. What call was entered for `COc1ccccc1C=O` ?
inactive

Entry `CCc1cc(Cc2cc(CC)c(N)c(CC)c2)cc(CC)c1N` : call = ?
inactive

I'd appreciate the recorded outcome for `O=S(=O)(O)CCC(F)(F)C(F)(F)C(F)(F)C(F)(F)C(F)(F)C(F)(F)C(F)(F)C(F)(F)F` from this test.
inactive

Could you check what this test reported for `O=C(O)C(F)(F)C(F)(F)C(F)(F)OC(F)(F)F` ?
inactive

Can you look up the reported call for `CCOCOCC` for me?
inactive

Call for entry `Oc1ccc2c(c1)CCC2` :
inactive

Would you mind telling me which call this test gave `O=C(O)C(F)(F)OC(F)(F)C(F)(F)OC(F)(F)C(F)(F)OC(F)(F)F` ?
inactive

What was the test verdict on `O=C1c2ccccc2C(=O)c2c(Cl)cccc21` ?
inactive

Please indicate how the test categorized `OCCCc1cccnc1` .
inactive

Dear colleague, could you share the recorded outcome for `CCOC(C=C(C)CCC=C(C)C)OCC` when you have a moment?
inactive

What call does the record list for `O=C(O)C(F)(F)C(F)(F)C(F)(F)C(=O)O` ?
inactive

// outcome(item) with item = `C=C(C)CCCC`
inactive

Check the results log: what was the call for `O=C(Cl)C(F)(F)C(F)(F)C(F)(F)C(F)(F)C(F)(F)C(F)(F)C(F)(F)F` ?
inactive

GET /call?item= `CC(C)(C)c1cc(CCC(=O)NCCCCCCNC(=O)CCc2cc(C(C)(C)C)c(O)c(C(C)(C)C)c2)cc(C(C)(C)C)c1O` returns the recorded outcome of this test.
inactive

Could you kindly confirm the outcome this assay logged for CCC(=O)OC(C)c1ccccc1 (centres undefined) ?
inactive

// outcome(item) with item = `O=C(Cl)c1ccc(Cl)cc1Cl`
inactive

Returns: the outcome recorded for `NC(=O)C(F)(F)C(F)(F)C(F)(F)C(F)F` in this assay.
inactive

Which outcome was assigned to `CN1CN(C)CN(C)C1` in this test?
inactive

Which outcome did this test record for the compound OCC(O)CC(F)(F)C(F)(F)C(F)(F)C(F)(F)F (centres undefined) ?
inactive

Short answer needed: outcome of this test for OCCC(O)CO (centres undefined) ?
inactive

I would be grateful if you could indicate the recorded call for `Cc1ccc(S(=O)(=O)C(I)I)cc1` .
active

Hey, what did the test say about `CCN=c1cc2oc3cc(NCC)c(C)cc3c(-c3ccccc3C(=O)OCC)c-2cc1C` ?
inactive

What did this assay record as the result for `CCOCN(C(=O)CS(=O)(=O)O)c1c(C)cccc1CC` ?
inactive

Record request — test call for `OCC(F)(F)C(F)(F)C(F)(F)C(F)(F)C(F)(F)C(F)(F)CO`
inactive

Fill in: this test's call for `OCC(F)(F)C(F)(F)C(F)(F)CO` is ___
inactive

Record lookup: outcome of this test for CC(C)CCCC(C)CCO (centres undefined) ?
inactive

Field: outcome | Entry: `O=c1[nH]cccc1O`
inactive

# outcome recorded in this test, key = `C[C@]12CC[C@H]3C(=CCc4cc(O)ccc43)[C@@H]1CCC2=O`
inactive

What call does the record list for `N#Cc1ccccc1O` ?
active

Status in this test for `C=CC(=O)OCC(F)(F)C(F)(F)C(F)(F)C(F)(F)C(F)(F)C(F)(F)C(F)(F)C(F)F` ?
inactive

Lab log entry: `C[Si](Cl)(Cl)CCC(F)(F)C(F)(F)C(F)(F)C(F)(F)C(F)(F)C(F)(F)F` — outcome as called in the assay?
inactive

Outcome? `COCCC(=O)OC`
inactive

# outcome recorded in this test, key = CCCCOC(=O)C(C)O (centres undefined)
inactive

Hello, I am checking results. What call was entered for `FC(F)(F)C(F)(F)C(F)(F)C(F)(F)C(F)(F)C(F)(F)C(F)(F)CCI` ?
inactive

Check the results log: what was the call for `CCN(CC)c1ccc(C=O)cc1` ?
inactive

Test call, this compound: `c1ccc(C[P+](c2ccccc2)(c2ccccc2)c2ccccc2)cc1`
inactive

What outcome does the record of this test show for `CC(C)(C)c1cc(Cc2cc(C(C)(C)C)c(O)c(C(C)(C)C)c2)cc(C(C)(C)C)c1O` ?
inactive

So what was the verdict on `N#CCCOCCC#N` in this test?
inactive

Please share the test call associated with `CC1CCCCC1` .
inactive

Test call, this compound: `CCOC(=O)CCC(C)=O`
inactive

Hello, I am checking results. What call was entered for `CC(C)OC(=O)COc1ccc(Cl)cc1Cl` ?
inactive

For this compound, state the assay outcome: `CCCCCCCCCCCC(=O)Cl`
inactive

GET /call?item= `NC(=O)C(F)(F)C(F)(F)C(F)(F)F` returns the recorded outcome of this test.
inactive

Assay result, entry `F[Si-2](F)(F)(F)(F)F` — outcome?
inactive

Would you mind telling me which call this test gave `Cc1ccc2c(c1)OCC(=O)CO2` ?
inactive

For `Nc1cc([N+](=O)[O-])cc(Cl)c1O` , which call appears in the assay record?
inactive

What classification did `CC(=O)CCC(C)C` end up with in this test?
inactive

Please share the test call associated with `O=C(c1ccccc1)c1ccc(O)cc1O` .
inactive

For FC(F)(F)C(F)(F)C(F)(F)CC1CO1 (centres undefined) , what call appears in the results of this test?
inactive

Kindly provide the recorded test outcome for the following compound: `Nc1cccnc1N`
active

Hello, I am checking results. What call was entered for `CCCCCCCCn1sc(Cl)c(Cl)c1=O` ?
active

I'd appreciate the recorded outcome for `CO[Si](C)(CCC(F)(F)C(F)(F)C(F)(F)C(F)(F)C(F)(F)C(F)(F)F)OC` from this test.
inactive

// return assay outcome for `CC1=CCC(=O)O1`
inactive

----------
# Read-out: Plasminogen activator inhibitor-1 (PAI1), SERPINE1 (gene 5054)
# Experiment Description: BSK_MyoF_PAI1: BioMAP Diversity Plus: MyoF Assay for Plasminogen activator inhibitor-1 (PAI1) Biomarker Activity (AID 2284256);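 on outcome: PAI-1 protein level measured by ELISA in fibroblast cultures; PAI-1 read 24 h after compound addition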
# Assay Context: primary human lung fibroblasts
Activity calls are given as the source filed them. How the source made its calls: active means hit-call score of the fitted dose curve at least 0.9, where 1 is the maximum; inactive means score below 0.9.
Respond using exactly one of the listed classes: True for active, False for inactive

Field: outcome | Entry: `FC(F)(F)C(F)(F)C(F)(F)C(F)(F)C(F)(F)C(F)(F)C(F)(F)CCI`
False

State the result this test recorded for `C[C@]12CC[C@H]3C(=CCc4cc(O)ccc43)[C@@H]1CCC2=O` .
False

Lab log entry: `OCC(F)(F)C(F)(F)C(F)(F)C(F)(F)C(F)(F)C(F)(F)C(F)(F)C(F)(F)CO` — outcome as called in the assay?
False

Dear all, I need the recorded test outcome for OCC(O)CC(F)(F)C(F)(F)C(F)(F)C(F)(F)F (centres undefined) , thank you.
False

Can you look up the reported call for `O=S(=O)(O)CCC(F)(F)C(F)(F)C(F)(F)C(F)(F)C(F)(F)C(F)(F)C(F)(F)C(F)(F)F` for me?
False

What did the test return for `O=C(O)CCC(F)(F)C(F)(F)C(F)(F)C(F)(F)C(F)(F)C(F)(F)C(F)(F)F` ?
False

How did this test come out for `O=C(F)C1(F)C(F)(F)C(F)(F)C(F)(F)C(F)(F)C1(F)F` ?
False

State the result this test recorded for `O=S(=O)(OCC(F)(F)F)C(F)(F)C(F)(F)C(F)(F)C(F)(F)F` .
False

Lab log entry: `NS(=O)(=O)C(F)(F)C(F)(F)C(F)(F)C(F)(F)C(F)(F)C(F)(F)F` — outcome as called in the assay?
False

Write down the call the test reported for this molecule. Item: `OC(O)C(F)(F)C(F)(F)F`
False

Tell me the recorded outcome of this test for `Cc1ccc(O)c(-n2nc3ccccc3n2)c1` .
False

Just curious, what result did `NC(O)(C(F)(F)F)C(F)(F)F` get here?
False

Look up the recorded call for `O=C1C=CC(=O)N1c1ccc(Cc2ccc(N3C(=O)C=CC3=O)cc2)cc1` in this test.
True

Which outcome was assigned to `CCN(CC)c1ccc(C=O)cc1` in this test?
False

How did this test come out for `CN(C(=O)C(F)(F)C(F)(F)C(F)(F)F)[Si](C)(C)C` ?
False

Fill in: this test's call for `O=C(O)C(F)(F)C(F)(F)C(F)(F)C(=O)O` is ___
False

Test call, this molecule: CC1=CC2C3C=CC(C3)C2C1C (centres undefined)
False

Lab log entry: COC(F)(C(F)F)C(F)(F)F (centres undefined) — outcome as called in the assay?
False

Lab log entry: OCC(O)CC(F)(F)C(F)(F)C(F)(F)C(F)(F)C(F)(F)C(F)(F)C(F)(F)C(F)(F)F (centres undefined) — outcome as called in the assay?
False

Recorded call for `O=C=NCc1cccc(CN=C=O)c1` ?
False

In this assay, the call recorded for `Cc1ccc(S(=O)(=O)C(I)I)cc1` was what?
True

Assay result, entry `NCC(F)(F)C(F)(F)C(F)(F)C(F)(F)C(F)(F)C(F)(F)C(F)(F)C(F)(F)F` — outcome?
False

Returns: the outcome recorded for CC(C)CCCC(C)CCO (centres undefined) in this assay.
False

What call does the record list for `CCN(CC)c1ccc(N=Nc2ccccc2)cc1` ?
False

Taken from PubChem BioAssay (EPA / NIEHS).
